# method-notes: Permeability in RRCK cells
# Format: ADME, cell-based, Canis lupus familiaris, MDCKII-LE
# run-conditions: dog, MDCK; read-out: permeability
parameter-measured: Papp (nm/s)

• Cc1cc(Oc2nccc3occc23)ccc1-c1c(C)ncc2nccn12 (atropisomer S) = 310

* * *

# Test system: MDR1 (P-gp)
# method-notes: Efflux ratio of permeability in MDCK cells transfected with MDR1
# Assay type: ADME, cell-based, Canis lupus familiaris
# run-conditions: dog
parameter-measured: efflux ratio

• Cc1cc(Oc2nccc3occc23)ccc1-c1c(C)ncc2nccn12 (atropisomer S) = 1.7

* * *

# method-notes: Intrinsic clearance in human liver microsomes
# Format: ADME, microsome
# run-conditions: read-out: CLH
parameter-measured: CLint scaled (mL/min/kg)

• Cc1cc(Oc2nccc3occc23)ccc1-c1c(C)ncc2nccn12 (atropisomer S) = 22

Where do the numbers come from? From ChEMBL document CHEMBL4257582.
